Target: recombinant homotrimeric HA A/Vietnam/1203/04 H5N1 (Influenza A virus A/VietNam/1203/2004(H5N1))
Assay: protein microarray, purified IgG, trimeric HA
Settings: remark: other sources report otherwise
Parameter: Trimeric HA Binding: RLU (RLU)

Binder	Readout unit	Experimental value
TCN-536 (5095_N01) (antibody, V domains shown) VH: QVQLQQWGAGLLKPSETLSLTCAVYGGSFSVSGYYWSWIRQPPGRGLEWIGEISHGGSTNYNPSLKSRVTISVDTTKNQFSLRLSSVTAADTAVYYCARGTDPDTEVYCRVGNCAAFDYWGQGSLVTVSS VL: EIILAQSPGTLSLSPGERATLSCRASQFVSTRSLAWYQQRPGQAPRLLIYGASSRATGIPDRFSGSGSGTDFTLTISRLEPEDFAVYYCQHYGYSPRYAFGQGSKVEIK	RLU	749
TCN-541 (5062_M11) (antibody, V domains shown) VH: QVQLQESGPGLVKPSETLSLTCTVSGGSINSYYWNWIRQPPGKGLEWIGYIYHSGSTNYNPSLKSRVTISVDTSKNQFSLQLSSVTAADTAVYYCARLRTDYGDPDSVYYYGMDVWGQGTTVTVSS VL: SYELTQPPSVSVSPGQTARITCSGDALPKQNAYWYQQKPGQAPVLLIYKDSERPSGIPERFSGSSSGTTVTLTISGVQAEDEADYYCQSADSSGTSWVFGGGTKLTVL	RLU	1150
TCN-528 (5087_P17) (antibody, V domains shown) VH: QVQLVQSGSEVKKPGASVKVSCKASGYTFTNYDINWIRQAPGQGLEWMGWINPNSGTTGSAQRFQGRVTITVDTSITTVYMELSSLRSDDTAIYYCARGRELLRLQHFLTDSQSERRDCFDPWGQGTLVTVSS VL: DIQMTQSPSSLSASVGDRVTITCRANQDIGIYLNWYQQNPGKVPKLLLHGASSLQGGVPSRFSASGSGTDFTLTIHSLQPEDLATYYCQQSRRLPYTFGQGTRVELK	RLU	24600
TCN-538 (3206_O17) (antibody, V domains shown) VH: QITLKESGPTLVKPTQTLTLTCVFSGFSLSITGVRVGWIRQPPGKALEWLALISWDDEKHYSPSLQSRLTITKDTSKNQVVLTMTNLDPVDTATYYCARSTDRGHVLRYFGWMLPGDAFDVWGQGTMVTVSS VL: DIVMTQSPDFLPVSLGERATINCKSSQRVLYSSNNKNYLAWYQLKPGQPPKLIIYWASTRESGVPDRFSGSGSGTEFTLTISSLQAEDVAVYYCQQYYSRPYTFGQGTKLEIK	RLU	14000
TCN-557 (5081_A04) (antibody, V domains shown) VH: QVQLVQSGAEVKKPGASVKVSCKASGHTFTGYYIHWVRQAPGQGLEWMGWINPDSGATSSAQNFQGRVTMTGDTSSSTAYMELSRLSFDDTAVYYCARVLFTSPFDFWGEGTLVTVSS VL: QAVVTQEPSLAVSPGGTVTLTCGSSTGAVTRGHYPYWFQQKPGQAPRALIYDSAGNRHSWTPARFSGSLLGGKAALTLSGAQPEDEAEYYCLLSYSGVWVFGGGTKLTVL	RLU	25400
TCN-527 (5086_C06) (antibody, V domains shown) VH: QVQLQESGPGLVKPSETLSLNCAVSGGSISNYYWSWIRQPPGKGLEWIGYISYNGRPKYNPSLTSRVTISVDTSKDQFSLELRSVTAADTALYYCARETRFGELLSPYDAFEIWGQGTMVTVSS VL: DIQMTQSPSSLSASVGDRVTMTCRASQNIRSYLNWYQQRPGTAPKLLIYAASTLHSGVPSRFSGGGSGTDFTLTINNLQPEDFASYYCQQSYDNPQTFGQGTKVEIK	RLU	19800
TCN-537 (3194_D21) (antibody, V domains shown) VH: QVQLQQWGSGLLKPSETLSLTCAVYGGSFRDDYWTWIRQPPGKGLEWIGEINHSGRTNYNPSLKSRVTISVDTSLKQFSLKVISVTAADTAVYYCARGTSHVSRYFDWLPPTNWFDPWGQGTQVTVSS VL: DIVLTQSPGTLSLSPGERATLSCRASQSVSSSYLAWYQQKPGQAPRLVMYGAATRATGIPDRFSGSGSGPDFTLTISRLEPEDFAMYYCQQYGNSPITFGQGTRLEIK	RLU	5690
TCN-552 (5249_I23) (antibody, V domains shown) VH: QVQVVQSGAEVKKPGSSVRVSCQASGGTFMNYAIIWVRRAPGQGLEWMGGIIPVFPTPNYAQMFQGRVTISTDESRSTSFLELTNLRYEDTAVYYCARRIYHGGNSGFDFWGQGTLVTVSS VL: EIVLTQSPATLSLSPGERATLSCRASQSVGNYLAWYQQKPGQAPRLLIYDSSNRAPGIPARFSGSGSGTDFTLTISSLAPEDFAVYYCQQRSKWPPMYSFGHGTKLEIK	RLU	27000
TCN-543 (5081_G23) (antibody, V domains shown) VH: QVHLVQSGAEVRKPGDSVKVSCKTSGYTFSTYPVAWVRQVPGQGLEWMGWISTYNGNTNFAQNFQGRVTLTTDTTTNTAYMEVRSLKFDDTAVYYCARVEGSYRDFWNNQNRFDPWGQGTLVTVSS VL: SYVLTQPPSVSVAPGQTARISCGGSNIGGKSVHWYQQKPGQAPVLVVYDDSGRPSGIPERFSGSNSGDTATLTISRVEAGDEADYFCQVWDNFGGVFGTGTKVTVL	RLU	640
TCN-523 (5248_A17) (antibody, V domains shown) VH: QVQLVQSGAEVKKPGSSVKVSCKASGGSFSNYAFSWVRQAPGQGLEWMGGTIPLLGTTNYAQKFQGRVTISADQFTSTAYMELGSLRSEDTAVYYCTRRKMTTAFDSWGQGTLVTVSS VL: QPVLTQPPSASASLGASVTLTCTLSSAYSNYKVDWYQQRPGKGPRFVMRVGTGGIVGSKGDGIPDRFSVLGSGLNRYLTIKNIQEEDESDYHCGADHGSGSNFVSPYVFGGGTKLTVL	RLU	20000
